# System: HL-60
# test_description: Cytotoxicity against human HL60 cells after 72 hrs by MTT assay
# Format: functional, cell-based
# conditions: HL-60, 72 h
endpoint_name: IC50 (µM)

entry_smiles: CO[C@]1(CC[C@@H](C)CO[C@@H]2O[C@H](CO)[C@@H](O)[C@H](O)[C@H]2O)O[C@H]2C[C@H]3[C@@H]4CC=C5C[C@@H](O[C@@H]6O[C@H](CO)[C@@H](O)[C@H](O[C@@H]7O[C@H](CO)[C@@H](O)[C@H](O)[C@H]7O)[C@H]6O[C@@H]6O[C@@H](C)[C@H](O)[C@@H](O)[C@H]6O)CC[C@]5(C)[C@H]4CC[C@]3(C)[C@H]2[C@@H]1C
endpoint_name: IC50
units_text: µM
rel: =
observed_measurement: 7.2
--
entry_smiles: C[C@@H]1CC[C@@]2(OC1)O[C@H]1C[C@H]3[C@@H]4CC=C5C[C@@H](O[C@@H]6O[C@H](CO)[C@@H](O[C@@H]7O[C@@H](C)[C@H](O)[C@@H](O)[C@H]7O)[C@H](O)[C@H]6O[C@@H]6O[C@@H](C)[C@H](O)[C@@H](O)[C@H]6O)CC[C@]5(C)[C@H]4CC[C@]3(C)[C@H]1[C@@H]2C
endpoint_name: IC50
units_text: µM
rel: =
observed_measurement: 2
--
entry_smiles: C=C1CO[C@@]2(O[C@H]3C[C@H]4[C@@H]5CC=C6C[C@@H](O)C[C@@H](O[C@@H]7OC[C@H](O)[C@H](O)[C@H]7O[C@@H]7O[C@@H](C)[C@H](OC(C)=O)[C@@H](O)[C@H]7O)[C@]6(C)[C@H]5CC[C@]4(C)[C@H]3[C@@H]2C)[C@@H](O)[C@H]1O
endpoint_name: IC50
units_text: µM
rel: >
observed_measurement: 100

Data provenance: ChEMBL document CHEMBL1146531
